# Mol, melting point
records = [
    ("CCCc1cnc2c(C#N)c(N3CCC(O)(c4ccccc4)CC3)ccn12", "201.1 °C"),
    ("CCc1cnc2c(C#N)c(-c3ccc(Oc4ccnc(C)c4)c(F)c3)ccn12", "197.6 °C"),
    ("C[C@]1(O)CC[C@H](Nc2ccc(-c3ccn4c(CC(F)(F)F)cnc4c3C#N)cc2Cl)CC1", "202.6 °C"),
]

###

# Measurement Target: human mGluR2 receptor (Homo sapiens, UniProt Q14416)
# Construct: expressed in transfected cells; host or cells: CHO cells
# Sequence (Q14416 19-872): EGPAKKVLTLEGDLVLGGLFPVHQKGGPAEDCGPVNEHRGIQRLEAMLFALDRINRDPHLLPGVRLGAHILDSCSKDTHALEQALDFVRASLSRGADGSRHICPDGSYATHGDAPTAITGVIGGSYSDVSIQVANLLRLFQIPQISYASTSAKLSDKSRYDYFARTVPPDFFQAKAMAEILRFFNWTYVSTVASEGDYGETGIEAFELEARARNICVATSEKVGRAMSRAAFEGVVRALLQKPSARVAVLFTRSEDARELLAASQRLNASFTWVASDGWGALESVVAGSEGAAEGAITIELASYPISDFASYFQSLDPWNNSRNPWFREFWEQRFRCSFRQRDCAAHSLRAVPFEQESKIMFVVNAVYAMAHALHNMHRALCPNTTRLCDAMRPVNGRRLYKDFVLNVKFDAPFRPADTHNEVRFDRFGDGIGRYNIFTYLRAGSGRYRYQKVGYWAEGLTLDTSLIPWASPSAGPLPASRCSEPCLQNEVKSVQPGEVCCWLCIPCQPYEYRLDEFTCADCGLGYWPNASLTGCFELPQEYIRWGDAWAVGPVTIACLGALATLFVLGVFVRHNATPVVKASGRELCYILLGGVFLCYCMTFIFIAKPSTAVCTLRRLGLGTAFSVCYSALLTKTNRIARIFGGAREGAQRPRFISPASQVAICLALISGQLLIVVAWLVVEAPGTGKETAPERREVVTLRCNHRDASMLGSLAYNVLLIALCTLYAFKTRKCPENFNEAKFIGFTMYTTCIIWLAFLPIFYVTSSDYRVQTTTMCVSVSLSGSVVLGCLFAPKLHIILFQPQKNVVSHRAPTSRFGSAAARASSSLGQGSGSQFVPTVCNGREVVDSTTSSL
# Assay Remarks: [35S]GTPγS binding assay (PAM assay) using membranes from cells transfected with the human mGluR2 receptor
# Assay type: biochemical
# Experimental Context: membranes of CHO cells with human mGluR2; glutamate at predetermined EC25 concentration; averages of duplicate values of 11-concentration response curves; read-out: GTPγS - hR2 PAM pEC50 (converted)
Quantity Name: EC50 (nM)

# Compound, Data Value
data = [
    ("CC(C)(O)COc1ccc(-c2ccn3c(CC(F)(F)F)cnc3c2C#N)cc1Cl", 3160),
    ("Cc1cnc(N2CCN(c3ccn4c(CC(F)(F)F)cnc4c3C#N)CC2)nc1", 646),
    ("Cc1cc(Oc2ccc(-c3ccn4c(CC(F)(F)F)cnc4c3C#N)cc2)ccn1", 589),
    ("Cc1cccnc1N1CCN(c2ccn3c(CC(F)(F)F)cnc3c2C#N)CC1", 1350),
    ("Cc1cc(Oc2ccc(-c3ccn4c(CCC5CC5)cnc4c3C#N)cc2F)ccn1", 372),
    ("N#Cc1c(-c2ccc(Oc3ccc(C(=O)O)cc3)cc2)ccn2c(CC(F)(F)F)cnc12", 676),
    ("N#Cc1c(-c2ccc(COc3cccc(F)c3)cc2)ccn2c(CC(F)(F)F)cnc12", 141),
    ("N#Cc1c(N2CCC(O)(c3ccccc3F)CC2)ccn2c(CC(F)(F)F)cnc12", 166),
    ("N#Cc1c(N2CCc3c([nH]c4ccccc34)C2)ccn2c(CC(F)(F)F)cnc12", 692),
    ("CC(C)(O)c1ccccc1C1CCN(c2ccn3c(CC(F)(F)F)cnc3c2C#N)CC1", 145),
    ("N#Cc1c(N2CCC(c3ccccc3)CC2)ccn2c(Cc3ccccc3)cnc12", 178),
    ("CC(O)(c1ccccc1)c1ccc(-c2ccn3c(CC(F)(F)F)cnc3c2C#N)cc1 (centres unmarked)", 525),
    ("FC(F)(F)Cc1cnc2c(Cl)c(N3CCC4(CC3)CN(c3ccccc3)C4)ccn12", 1780),
    ("Fc1ccc(Oc2ccc(-c3ccn4c(CC(F)(F)F)cnc4c3Cl)cc2)cc1", 269),
]
